Target: EZH2 Y641F (Homo sapiens (Human), UniProt Q15910, Y641F)
Sequence (Q15910 whole entry Y641F): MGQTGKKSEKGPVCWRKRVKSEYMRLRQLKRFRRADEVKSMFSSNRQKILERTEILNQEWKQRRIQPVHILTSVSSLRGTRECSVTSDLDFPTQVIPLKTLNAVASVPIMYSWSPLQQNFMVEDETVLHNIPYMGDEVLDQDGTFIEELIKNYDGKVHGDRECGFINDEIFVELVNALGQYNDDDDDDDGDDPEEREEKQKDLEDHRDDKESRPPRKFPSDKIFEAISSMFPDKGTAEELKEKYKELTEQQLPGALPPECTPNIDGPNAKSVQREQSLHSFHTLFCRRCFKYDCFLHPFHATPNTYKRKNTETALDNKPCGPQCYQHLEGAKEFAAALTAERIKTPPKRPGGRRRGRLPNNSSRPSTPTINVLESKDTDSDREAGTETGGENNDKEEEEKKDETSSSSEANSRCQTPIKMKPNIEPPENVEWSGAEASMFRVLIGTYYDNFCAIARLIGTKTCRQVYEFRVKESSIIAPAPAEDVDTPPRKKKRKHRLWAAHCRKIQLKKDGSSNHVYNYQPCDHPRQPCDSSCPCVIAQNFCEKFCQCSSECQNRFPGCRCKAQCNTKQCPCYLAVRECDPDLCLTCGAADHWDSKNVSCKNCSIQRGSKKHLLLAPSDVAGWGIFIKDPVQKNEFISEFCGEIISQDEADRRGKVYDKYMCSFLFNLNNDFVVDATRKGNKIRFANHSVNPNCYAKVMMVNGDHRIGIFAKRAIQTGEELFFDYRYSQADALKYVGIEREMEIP
Sequence (O75530 whole entry partner): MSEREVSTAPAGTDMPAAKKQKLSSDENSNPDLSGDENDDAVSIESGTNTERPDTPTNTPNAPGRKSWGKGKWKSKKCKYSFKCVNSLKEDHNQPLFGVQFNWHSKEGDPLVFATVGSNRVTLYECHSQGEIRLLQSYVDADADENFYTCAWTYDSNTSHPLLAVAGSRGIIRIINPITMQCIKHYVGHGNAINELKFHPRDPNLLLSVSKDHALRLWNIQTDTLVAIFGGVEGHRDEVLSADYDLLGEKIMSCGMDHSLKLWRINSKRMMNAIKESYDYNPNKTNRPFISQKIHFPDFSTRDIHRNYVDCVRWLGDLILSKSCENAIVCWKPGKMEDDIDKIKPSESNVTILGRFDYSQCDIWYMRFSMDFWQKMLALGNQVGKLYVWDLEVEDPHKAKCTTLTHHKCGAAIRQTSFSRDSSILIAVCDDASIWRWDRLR
Sequence (Q15022 whole entry partner): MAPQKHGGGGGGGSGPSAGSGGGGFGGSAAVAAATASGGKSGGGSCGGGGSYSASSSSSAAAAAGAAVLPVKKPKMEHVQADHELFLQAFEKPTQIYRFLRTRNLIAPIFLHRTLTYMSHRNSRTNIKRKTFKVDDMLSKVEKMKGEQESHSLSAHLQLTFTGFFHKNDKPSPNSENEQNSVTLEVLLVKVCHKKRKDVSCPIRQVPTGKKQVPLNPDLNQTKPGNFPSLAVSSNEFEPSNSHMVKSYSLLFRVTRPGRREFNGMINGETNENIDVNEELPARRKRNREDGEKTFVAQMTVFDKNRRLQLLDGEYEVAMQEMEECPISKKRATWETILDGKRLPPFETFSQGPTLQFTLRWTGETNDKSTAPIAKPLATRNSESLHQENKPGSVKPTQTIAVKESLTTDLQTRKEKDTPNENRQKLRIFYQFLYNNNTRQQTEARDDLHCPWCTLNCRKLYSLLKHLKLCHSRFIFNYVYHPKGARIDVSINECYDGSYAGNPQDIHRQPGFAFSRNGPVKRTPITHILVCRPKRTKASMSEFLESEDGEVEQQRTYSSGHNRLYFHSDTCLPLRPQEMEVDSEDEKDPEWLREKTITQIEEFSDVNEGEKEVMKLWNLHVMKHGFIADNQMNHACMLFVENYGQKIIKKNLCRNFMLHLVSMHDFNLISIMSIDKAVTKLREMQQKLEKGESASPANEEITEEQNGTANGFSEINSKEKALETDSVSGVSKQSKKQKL
Sequence (Q09028 whole entry partner): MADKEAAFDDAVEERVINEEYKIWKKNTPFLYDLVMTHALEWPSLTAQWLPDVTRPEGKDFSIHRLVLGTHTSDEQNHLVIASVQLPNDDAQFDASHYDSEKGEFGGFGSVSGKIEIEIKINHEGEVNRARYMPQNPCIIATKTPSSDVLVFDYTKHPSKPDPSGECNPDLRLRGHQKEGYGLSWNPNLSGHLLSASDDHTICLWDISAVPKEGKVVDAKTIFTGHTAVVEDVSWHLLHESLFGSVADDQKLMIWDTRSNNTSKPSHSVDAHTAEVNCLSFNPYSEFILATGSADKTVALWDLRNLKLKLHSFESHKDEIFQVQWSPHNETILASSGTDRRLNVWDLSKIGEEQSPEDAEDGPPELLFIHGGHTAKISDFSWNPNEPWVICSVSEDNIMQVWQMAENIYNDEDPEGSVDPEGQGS
Sequence (Q6ZN18 whole entry partner): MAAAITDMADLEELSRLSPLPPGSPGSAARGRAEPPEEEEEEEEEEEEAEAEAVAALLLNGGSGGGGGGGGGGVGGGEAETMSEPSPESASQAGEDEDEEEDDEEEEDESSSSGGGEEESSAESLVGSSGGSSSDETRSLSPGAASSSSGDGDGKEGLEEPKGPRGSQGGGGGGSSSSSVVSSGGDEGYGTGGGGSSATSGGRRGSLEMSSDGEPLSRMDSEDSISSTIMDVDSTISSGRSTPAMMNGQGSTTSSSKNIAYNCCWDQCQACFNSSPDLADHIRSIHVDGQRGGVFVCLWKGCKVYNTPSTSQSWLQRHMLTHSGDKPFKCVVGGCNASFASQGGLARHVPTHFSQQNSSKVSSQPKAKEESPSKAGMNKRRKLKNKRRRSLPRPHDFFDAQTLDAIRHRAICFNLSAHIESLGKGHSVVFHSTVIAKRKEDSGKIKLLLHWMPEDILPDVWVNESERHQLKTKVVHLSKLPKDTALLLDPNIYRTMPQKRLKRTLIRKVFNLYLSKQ
Experiment: In vitro methyltransferase activity test (LANCE Ultra)
Conditions: Recombinant PRC2 (EZH2-Y641F), 2.5 μM SAM/250 nM H3(1-50)K27me1, 3 hours, room temperature
Property Label: IC50
Reply with a number, then the unit it belongs to.

Consider the worked cases shown below.
| Compound | Assayed Target | Observed Measurement |
| --- | --- | --- |
| C=CCC1(S(=O)(=O)n2cc(C)c3c(C(=O)NCc4c(OC)cc(C)[nH]c4=O)cc(N4CCN(C)CC4)cc32)CC1 | EZH2 Y641F (Homo sapiens (Human), UniProt Q15910, Y641F) | 26 nM |
| C=CCC1(S(=O)(=O)n2cc(C)c3c(C(=O)NCc4c(OC(F)F)cc(C)[nH]c4=O)cc(-c4ccc(N5CCN(C)CC5)nc4)cc32)CC1 | EZH2 Y641F (Homo sapiens (Human), UniProt Q15910, Y641F) | 34 nM |
| C=CCC1(S(=O)(=O)n2cc(C)c3c(C(=O)NCc4c(C)cc(C)[nH]c4=O)cc(-c4ccc(N)nc4)cc32)CC1 | EZH2 Y641F (Homo sapiens (Human), UniProt Q15910, Y641F) | 35 nM |
| C=CCC1(S(=O)(=O)n2cc(C)c3c(C(=O)NCc4c(C)cc(C)[nH]c4=O)cc(-c4cnc(N5CCNCC5)nc4)cc32)CC1 | EZH2 Y641F (Homo sapiens (Human), UniProt Q15910, Y641F) | 17 nM |
| C=CCC1(S(=O)(=O)n2cc(C)c3c(C(=O)NCc4c(C)cc(C)[nH]c4=O)cc(-c4ccc(CN(C)C)cc4F)cc32)CC1 [Compound G-18] | EZH2 Y641F (Homo sapiens (Human), UniProt Q15910, Y641F) | 42 nM |

IC50 lookup needed for C=CCC1(S(=O)(=O)n2cc(C)c3c(C(=O)NCc4c(C)cc(C)[nH]c4=O)cc(-c4ccc(N5CCOCC5)nc4)cc32)CC1 , thanks.
58 nM

What do we get for C=CCC1(S(=O)(=O)n2cc(C)c3c(C(=O)NCc4c(C)cc(C)[nH]c4=O)cc(-c4ccc(OCCN(C)C)cc4)cc32)CC1 ?
17 nM

Now this one: C=CCC1(S(=O)(=O)n2cc(C)c3c(C(=O)NCc4c(C)cc(C)[nH]c4=O)cc(-c4ccc(OCCCN(C)C)cc4)cc32)CC1
32 nM

Input C=CCC1(S(=O)(=O)n2cc(C)c3c(C(=O)NCc4c(C)cc(C)[nH]c4=O)cc(-c4ccc(CN(C)C)cc4)cc32)CC1 [Compound G-6]
19 nM

Then C=CCC1(S(=O)(=O)N2CC(C)c3c(C(=O)NCc4c(C)cc(C)[nH]c4=O)cc(-c4ccc(N5CCN(C)CC5)nc4)cc32)CC1 (stereo not drawn) ?
147 nM

###

Biological target: EZH2 Y641F (Homo sapiens (Human), UniProt Q15910, Y641F)
Assay: In vitro methyltransferase activity test (LANCE Ultra)
Settings: Recombinant PRC2 (EZH2-Y641F), 2.5 μM SAM/250 nM H3(1-50)K27me1, 3 hours, room temperature
Property Label: IC50 (nM)
# value in nM; strip the unit string

| Compound | IC50 (nM) |
| --- | --- |
| C=CCC1(S(=O)(=O)n2cc(C)c3c(C(=O)NCc4c(C)cc(C)[nH]c4=O)cc(-c4cnc(N5CCN(C)CC5)nc4)cc32)CC1 | 13 |
| C=CCC1(S(=O)(=O)N2CCc3c(C(=O)NCc4c(C)cc(C)[nH]c4=O)cc(-c4ccc(N5CCN(C)CC5)nc4)cc32)CC1 | 460 |
| C=CCC1(S(=O)(=O)n2nc(C)c3c(C(=O)NCc4c(C)cc(C)[nH]c4=O)cc(-c4ccc(N5CCN(C)CC5)nc4)cc32)CC1 | 585 |

If you can, please state the reported IC50 value of C=CCC1(S(=O)(=O)N2CC(C)c3c(C(=O)NCc4c(C)cc(C)[nH]c4=O)cc(-c4ccc(CN(C)C)cc4)cc32)CC1 (centres unmarked) .
280

Quick one: Cc1cc(C)c(CNC(=O)c2cc(-c3ccc(N4CCN(C)CC4)nc3)cc3c2CCN3S(=O)(=O)C(C)C)c(=O)[nH]1
160

Entry source: patent US10793549B2
